From: ChEMBL document CHEMBL3526141

- assay-system: Cytochrome P450 3A5 (Homo sapiens, UniProt P20815)
- Sequence (P20815 whole entry): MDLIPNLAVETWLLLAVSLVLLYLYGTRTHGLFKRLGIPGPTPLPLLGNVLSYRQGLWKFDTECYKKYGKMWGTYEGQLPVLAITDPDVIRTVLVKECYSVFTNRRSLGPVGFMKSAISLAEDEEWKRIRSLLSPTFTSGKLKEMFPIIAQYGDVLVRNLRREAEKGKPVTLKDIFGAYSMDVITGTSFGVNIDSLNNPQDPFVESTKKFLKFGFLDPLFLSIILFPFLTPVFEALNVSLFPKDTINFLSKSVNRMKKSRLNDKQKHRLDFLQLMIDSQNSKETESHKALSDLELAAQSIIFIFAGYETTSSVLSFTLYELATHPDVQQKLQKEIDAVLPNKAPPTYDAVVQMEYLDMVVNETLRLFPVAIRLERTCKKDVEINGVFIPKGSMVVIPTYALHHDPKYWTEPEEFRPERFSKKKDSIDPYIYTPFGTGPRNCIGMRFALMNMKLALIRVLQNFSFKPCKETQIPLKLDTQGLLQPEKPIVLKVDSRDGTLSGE
- assay-details: Drug metabolism assessed as human CYP3A5-mediated compound formation from 20 uM [14C]boceprevir after 120 mins by LC-MS/FSA method relative to total [14C]boceprevir
- Assay type: ADME
- cond: recombinant enzyme, 2 h
outcome-measure: Compound recovery (%)

I. CC(C)(C)NC(=O)N[C@H](C(=O)N1C[C@H]2[C@@H]([C@H]1C(N)=O)C2(C)C)C(C)(C)C
II. CC(C)(C)NC(=O)N[C@H](C(=O)N1C[C@H]2[C@@H]([C@H]1C(=O)N[C@@H](CC1CCC1)C(=O)C(N)=O)C2(C)C)C(C)(C)C
III. CC(C)(C)NC(=O)N[C@H](C(=O)N1C[C@H]2[C@@H]([C@H]1C(=O)N[C@H](CC1CCC1)C(=O)C(N)=O)C2(C)C)C(C)(C)C
Exam item: Sort ascending by Compound recovery. Your reply should list the labels following the order given in the request.
Marked response: I, III, II
(I: 2.87%, III: 19.67%, II: 38.77%)

###

- Test system: Liver microsome
- assay-details: Drug metabolism in human liver microsomes treated with 20 uM [14C]boceprevir assessed as compound formation by LC-MS/FSA method relative to total [14C]boceprevir
- Type: ADME
outcome-measure: Compound recovery (%)

> print(dat)
                                   compound  reported.result
1  CC(C)(C)NC(=O)N[C@H](C(=O)N1C[C@H]2[C@@H]([C@H]1C(=O)N[C@@H](CC1CCC1)[C@@H](O)C(N)=O)C2(C)C)C(C)(C)C              0.6

A. CC(C)(C)NC(=O)N[C@H](C(=O)N1C[C@H]2[C@@H]([C@H]1C(=O)N[C@@H](CC1CCC1)C(=O)C(N)=O)C2(C)C)C(C)(C)C [BOCEPREVIR]
B. CC(C)(C)NC(=O)N[C@H](C(=O)N1C[C@H]2[C@@H]([C@H]1C(=O)O)C2(C)C)C(C)(C)C
C. CC(C)(C)NC(=O)N[C@H](C(=O)N1C[C@H]2[C@@H]([C@H]1C(=O)N[C@H](CC1CCC1)C(=O)C(N)=O)C2(C)C)C(C)(C)C
Exam item: Task field, ranking: reported Compound recovery, descending order. Your reply should list the labels following the order given in the request.
Marked response: A, C, B
(A: 26.12%, C: 17.42%, B: 1.1%)

###

- assay-system: Cytochrome P450 1A1 (Homo sapiens)
- Sequence (P04798 whole entry): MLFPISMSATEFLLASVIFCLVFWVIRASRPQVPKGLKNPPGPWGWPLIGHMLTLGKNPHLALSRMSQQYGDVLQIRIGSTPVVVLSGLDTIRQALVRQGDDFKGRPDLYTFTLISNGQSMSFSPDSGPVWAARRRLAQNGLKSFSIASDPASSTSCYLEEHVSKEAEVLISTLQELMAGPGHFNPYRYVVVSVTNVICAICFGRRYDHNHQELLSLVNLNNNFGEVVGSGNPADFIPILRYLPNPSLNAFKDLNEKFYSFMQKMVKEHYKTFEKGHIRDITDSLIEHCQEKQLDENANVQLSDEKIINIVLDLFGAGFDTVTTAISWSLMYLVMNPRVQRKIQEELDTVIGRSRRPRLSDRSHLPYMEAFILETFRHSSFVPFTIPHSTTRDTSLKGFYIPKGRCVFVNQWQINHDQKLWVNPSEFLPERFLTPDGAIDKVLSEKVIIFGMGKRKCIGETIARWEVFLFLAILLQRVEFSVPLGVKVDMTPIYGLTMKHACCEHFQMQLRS
- assay-details: Drug metabolism assessed as human […]-mediated compound formation from 5 uM [14C]boceprevir after 120 mins by LC-MS/FSA method relative to total [14C]boceprevir
- Format: ADME
- cond: recombinant enzyme, 2 h
outcome-measure: Compound recovery (%)

I. CC(C)(C)NC(=O)N[C@H](C(=O)N1C[C@H]2[C@@H]([C@H]1C(N)=O)C2(C)C)C(C)(C)C
II. CC(C)(C)NC(=O)N[C@H](C(=O)N1C[C@H]2[C@@H]([C@H]1C(=O)N[C@@H](CC1CCC1)[C@@H](O)C(N)=O)C2(C)C)C(C)(C)C
Exam item: Response body: label of entry with the larger Compound recovery; valid values I , II . Mark your answer with the label of the selected entry.
Marked response: I
(I: 2.9%, II: 0.57%)

I. CC(C)(C)NC(=O)N[C@H](C(=O)N1C[C@H]2[C@@H]([C@H]1C(=O)N[C@@H](CC1CCC1)C(=O)C(N)=O)C2(C)C)C(C)(C)C [BOCEPREVIR]
II. CC(C)(C)NC(=O)N[C@H](C(=O)N1C[C@H]2[C@@H]([C@H]1C(=O)N[C@H](CC1CCC1)C(=O)C(N)=O)C2(C)C)C(C)(C)C
III. CC(C)(C)NC(=O)N[C@H](C(=O)N1C[C@H]2[C@@H]([C@H]1C(=O)O)C2(C)C)C(C)(C)C
Exam item: In this exercise, place the 3 compounds in ascending sequence of their recorded Compound recovery. Your reply should list the labels following the order given in the request.
Marked response: III, II, I
(III: 0.33%, II: 33.4%, I: 55.46%)

###

- Tested on: Plasma
- assay-details: Drug metabolism in human plasma treated with [14C]boceprevir assessed as ratio of drug level by LC-MS/MS method relative to boceprevir
- Format: ADME, cell-free
outcome-measure: Compound recovery

> print(dat)
                                smiles.data    outcome.measure  reported.result
1  CC(C)(C)NC(=O)N[C@H](C(=O)N1C[C@H]2[C@@H]([C@H]1C(=O)N[C@@H](CC1CCC1)[C@@H](O)C(N)=O)C2(C)C)C(C)(C)C  Compound recovery           >= 50%
2  CC(C)(C)NC(=O)N[C@H](C(=O)N1C[C@H]2[C@@H]([C@H]1C(N)=O)C2(C)C)C(C)(C)C  Compound recovery              10%
3  CC(C)(C)NC(=O)N[C@H](C(=O)N1C[C@H]2[C@@H]([C@H]1C(=O)N[C@@H](CC1CCC1)C(=O)C(N)=O)C2(C)C)C(C)(C)C  Compound recovery           >= 50%
4  CC(C)(C)NC(=O)N[C@H](C(=O)N1C[C@H]2[C@@H]([C@H]1C(=O)N[C@H](CC1CCC1)[C@@H](O)C(N)=O)C2(C)C)C(C)(C)C  Compound recovery           >= 50%

Exam item: Determine reported Compound recovery for CC(C)(C)NC(=O)N[C@H](C(=O)N1C[C@H]2[C@@H]([C@H]1C(=O)N[C@H](CC1CCC1)C(=O)C(N)=O)C2(C)C)C(C)(C)C ; test system: Plasma.
Marked response: >= 50%

###

- assay-system: Cytochrome P450 2C19 (Homo sapiens, UniProt P33261)
- Sequence (P33261 whole entry): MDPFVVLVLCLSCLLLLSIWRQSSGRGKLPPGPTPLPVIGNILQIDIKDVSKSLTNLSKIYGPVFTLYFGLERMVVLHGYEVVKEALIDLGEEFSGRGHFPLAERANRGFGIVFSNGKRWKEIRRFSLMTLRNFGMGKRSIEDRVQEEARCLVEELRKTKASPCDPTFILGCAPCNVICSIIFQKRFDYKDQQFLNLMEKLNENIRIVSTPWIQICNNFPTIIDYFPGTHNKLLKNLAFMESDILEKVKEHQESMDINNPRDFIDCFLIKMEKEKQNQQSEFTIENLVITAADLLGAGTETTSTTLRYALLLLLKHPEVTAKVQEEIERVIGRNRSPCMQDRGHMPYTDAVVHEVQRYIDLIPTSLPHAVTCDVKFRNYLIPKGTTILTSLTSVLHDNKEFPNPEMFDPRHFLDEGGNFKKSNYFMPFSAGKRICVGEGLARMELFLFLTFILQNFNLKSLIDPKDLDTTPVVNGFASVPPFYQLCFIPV
- assay-details: Drug metabolism assessed as human CYP2C19-mediated compound formation from 5 uM [14C]boceprevir after 120 mins by LC-MS/FSA method relative to total [14C]boceprevir
- Format: ADME
- cond: recombinant enzyme, 2 h
outcome-measure: Compound recovery (%)

> print(dat)
                                smiles.data  u  reported.result
1  CC(C)(C)NC(=O)N[C@H](C(=O)N1C[C@H]2[C@@H]([C@H]1C(=O)O)C2(C)C)C(C)(C)C  %             0.29

1. CC(C)(C)NC(=O)N[C@H](C(=O)N1C[C@H]2[C@@H]([C@H]1C(=O)N[C@@H](CC1CCC1)[C@@H](O)C(N)=O)C2(C)C)C(C)(C)C
2. CC(C)(C)NC(=O)N[C@H](C(=O)N1C[C@H]2[C@@H]([C@H]1C(=O)N[C@@H](CC1CCC1)C(=O)C(N)=O)C2(C)C)C(C)(C)C
3. CC(C)(C)NC(=O)N[C@H](C(=O)N1C[C@H]2[C@@H]([C@H]1C(=O)N[C@H](CC1CCC1)C(=O)C(N)=O)C2(C)C)C(C)(C)C
Exam item: In this exercise, place the 3 compounds in ascending sequence of their recorded Compound recovery. Your reply should list the labels following the order given in the request.
Marked response: 1, 3, 2

###

- assay-system: Cytochrome P450 2B6 (Homo sapiens, UniProt P20813)
- Sequence (P20813 whole entry): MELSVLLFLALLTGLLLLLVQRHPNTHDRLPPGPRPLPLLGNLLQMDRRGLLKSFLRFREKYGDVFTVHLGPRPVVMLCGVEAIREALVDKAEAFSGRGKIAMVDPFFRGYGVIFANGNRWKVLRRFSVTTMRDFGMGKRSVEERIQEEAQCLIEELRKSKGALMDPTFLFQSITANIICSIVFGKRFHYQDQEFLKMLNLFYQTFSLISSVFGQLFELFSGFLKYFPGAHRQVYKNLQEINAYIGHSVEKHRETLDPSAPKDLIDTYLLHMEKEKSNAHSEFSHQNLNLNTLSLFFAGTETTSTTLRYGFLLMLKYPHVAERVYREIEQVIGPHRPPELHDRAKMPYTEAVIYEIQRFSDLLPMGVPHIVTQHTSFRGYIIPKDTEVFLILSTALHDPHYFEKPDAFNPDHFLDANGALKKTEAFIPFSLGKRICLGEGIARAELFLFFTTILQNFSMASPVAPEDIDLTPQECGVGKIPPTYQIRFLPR
- assay-details: Drug metabolism assessed as human CYP2B6-mediated compound formation from 5 uM [14C]boceprevir after 120 mins by LC-MS/FSA method relative to total [14C]boceprevir
- Assay type: ADME
- cond: recombinant enzyme, 2 h
outcome-measure: Compound recovery (%)

> print(dat)
                                   compound                              assay.system  u  reported.result
1  CC(C)(C)NC(=O)N[C@H](C(=O)N1C[C@H]2[C@@H]([C@H]1C(=O)N[C@H](CC1CCC1)C(=O)C(N)=O)C2(C)C)C(C)(C)C  Cytochrome P450 2B6 (Homo sapiens, UniProt P20813)  %            33.77
2  CC(C)(C)NC(=O)N[C@H](C(=O)N1C[C@H]2[C@@H]([C@H]1C(=O)N[C@@H](CC1CCC1)[C@@H](O)C(N)=O)C2(C)C)C(C)(C)C  Cytochrome P450 2B6 (Homo sapiens, UniProt P20813)  %              0.9
3  CC(C)(C)NC(=O)N[C@H](C(=O)N1C[C@H]2[C@@H]([C@H]1C(=O)N[C@@H](CC1CCC1)C(=O)C(N)=O)C2(C)C)C(C)(C)C [BOCEPREVIR]  Cytochrome P450 2B6 (Homo sapiens, UniProt P20813)  %            56.54

1. CC(C)(C)NC(=O)N[C@H](C(=O)N1C[C@H]2[C@@H]([C@H]1C(N)=O)C2(C)C)C(C)(C)C
2. CC(C)(C)NC(=O)N[C@H](C(=O)N1C[C@H]2[C@@H]([C@H]1C(=O)O)C2(C)C)C(C)(C)C
Exam item: Returns the identifier with the smallest measured Compound recovery among 1 and 2 . Mark your answer with the label of the selected entry.
Marked response: 2
